Test system: crop plants (cereal)
protocol summary: Container trials with cereal in the greenhouse, mefenpyr 1 day prior to herbicide application (Example B, use of safeners)
Assay type: in vivo
measurement conditions: 10 days after application; 100 g of a.i./ha; without safener
Summer wheat observed (%) listing for selected compounds.
Respond with the bare value in %.

Worked set:
CCc1cc(C)cc(CC)c1C1=C(OC(=O)C(C)C)[C@H]2CCCC[C@H]2C1=O (relative stereo) [I-b-23] ... 80
CCc1cc(C)cc(CC)c1C1=C(O)C2CC3OC(C)(C)OC3CC2C1=O (mixture of isomers) [I-a-13] ... 80
CCc1cc(C)cc(CC)c1C1=C(OC(=O)COC)C2(CCCCC2)CC1=O [I-b-33] ... 65
CCc1cc(C)cc(C)c1C1=C(OC(=O)COC)C2(CCCC2)CC1=O [I-b-11] ... 50

# evaluate next
Query for crop plants (cereal): what Summer wheat observed (%) does the record show for CCOC(=O)OC1=C(c2c(CC)cc(C)cc2CC)C(=O)C2CCCCC12 (centres unmarked) [I-c-8] ?
80
